Cited source for all entries: patent US8338597B2

Molecular target: Rlk (Homo sapiens, UniProt P42681)
Sequence (P42681 1-527): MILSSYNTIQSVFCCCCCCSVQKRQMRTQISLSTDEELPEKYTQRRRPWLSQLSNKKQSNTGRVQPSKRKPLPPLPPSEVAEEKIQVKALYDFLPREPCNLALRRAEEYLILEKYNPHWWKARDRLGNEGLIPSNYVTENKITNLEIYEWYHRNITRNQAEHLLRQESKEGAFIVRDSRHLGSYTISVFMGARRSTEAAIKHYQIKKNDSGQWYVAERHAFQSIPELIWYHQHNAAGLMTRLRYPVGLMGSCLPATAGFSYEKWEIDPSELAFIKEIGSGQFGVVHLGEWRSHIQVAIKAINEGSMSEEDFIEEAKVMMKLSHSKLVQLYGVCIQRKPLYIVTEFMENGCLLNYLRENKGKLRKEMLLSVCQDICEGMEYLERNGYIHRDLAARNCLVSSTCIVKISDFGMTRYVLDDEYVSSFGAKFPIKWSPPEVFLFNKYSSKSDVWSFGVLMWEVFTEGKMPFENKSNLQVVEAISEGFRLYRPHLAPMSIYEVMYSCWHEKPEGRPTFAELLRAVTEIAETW
Assay: RLK inhibition assay, standard coupled enzyme assay
Details: 100 μM ATP, 40 nM Rlk, 30° C.
pKi: −log10 of the molar value.
Please respond with reported pKi for every item in the list.

Quick one: pKi for `CNc1cc(F)cc(-c2c[nH]c(=O)c(NC(=O)c3ccc(N4CCC[C@H]4CN4CCCC4)cc3)c2)n1` ? < 6.00

Quick one: pKi for `CC(C)(N)CNc1cccc(-c2c[nH]c(=O)c(NC(=O)c3ccc(N4CCCCC4)cc3)c2)n1` ? > 6.00

Quick one: pKi for `CNc1cc(-c2c[nH]c(=O)c(NC(=O)c3ccc(C(C)(C)C)cc3)c2)nc(SC)n1` ? < 6.00

Quick one: pKi for `CNc1cc(C#N)cc(-c2c[nH]c(=O)c(NC(=O)c3ccc(N4CCC[C@H]4CN4CCCC4)cc3)c2)c1` ? < 6.00

Quick one: pKi for `CC(C)(C)c1ccc(C(=O)Nc2cc(C3=CC(=O)CCC3)c[nH]c2=O)cc1` ? < 6.00

Quick one: pKi for `CC(C)(C)c1ccc(C(=O)Nc2cc(-c3ccnc(NC4CCNCC4)n3)c[nH]c2=O)cc1` ? > 6.00

Quick one: pKi for CC(C)(C)c1ccc(C(=O)Nc2cc(-c3ccnc(NC4CCCNC4)n3)c[nH]c2=O)cc1 (stereo not drawn) ? > 6.00

Quick one: pKi for `CNc1nccc(-c2c[nH]c(=O)c(NC(=O)c3ccc(N4CCN(C(C)C)CC4)cc3)c2)n1` ? > 6.00

Quick one: pKi for `CNc1cncc(-c2c[nH]c(=O)c(NC(=O)c3ccc(N4CCCCC4)cc3)c2)c1` ? < 6.00

Quick one: pKi for `CNc1cc(C#N)cc(-c2c[nH]c(=O)c(NC(=O)c3ccc(N4CCNCC4)cc3)c2)n1` ? < 6.00

Quick one: pKi for `CNc1cncc(-c2c[nH]c(=O)c(NC(=O)c3ccc(OCCC4CCNCC4)cc3)c2)n1` ? < 6.00

Quick one: pKi for `CC(C)(C)c1ccc(NC(=O)c2cc(-c3ccncc3)c[nH]c2=O)cc1` ? < 6.00

Quick one: pKi for `CNc1nccc(-c2c[nH]c(=O)c(NC(=O)c3ccc(N4CCN(CCCOC)CC4)cc3)c2)n1` ? > 6.00

Quick one: pKi for `CCN(CC)CCN1CCN(c2ccc(C(=O)Nc3cc(-c4ccncc4)c[nH]c3=O)cc2)CC1` ? < 6.00

Quick one: pKi for `CNc1cc(-c2c[nH]c(=O)c(NC(=O)c3ccc(C(C)(C)C)cc3)c2)ncn1` ? < 6.00

Quick one: pKi for `CNCCNc1cc(-c2c[nH]c(=O)c(NC(=O)c3ccc(C(C)(C)C)cc3)c2)ncn1` ? < 6.00

Quick one: pKi for `CC(C)c1ccc(NC(=O)c2cc(-c3ccncc3)c[nH]c2=O)cc1` ? < 6.00

Quick one: pKi for `CNc1cncc(-c2c[nH]c(=O)c(NC(=O)c3ccc(N4CC[C@@H](N(C)C)C4)cc3)c2)n1` ? < 6.00

Quick one: pKi for `CNc1cncc(-c2c[nH]c(=O)c(NC(=O)c3ccc(NC4CCNCC4)cc3)c2)n1` ? < 6.00

Quick one: pKi for `CNc1cncc(-c2c[nH]c(=O)c(NC(=O)c3ccc(N4CCCCC4)cc3)c2)n1` ? < 6.00

Quick one: pKi for `CNc1cccc(-c2c[nH]c(=O)c(NC(=O)c3ccc(N4CCCCC4)cc3)c2)n1` ? < 6.00

Quick one: pKi for `O=C(Nc1cc(-c2ccncc2)c[nH]c1=O)c1ccc(CCl)cc1` ? < 6.00

Quick one: pKi for `O=C1C=C(c2c[nH]c(=O)c(NC(=O)c3ccc(N4CCCCC4)cc3)c2)CCC1` ? < 6.00

Quick one: pKi for `CNc1nccc(-c2c[nH]c(=O)c(NC(=O)c3ccc(N4CCCCC4)cc3)c2)n1` ? > 6.00

Quick one: pKi for `CC(C)(C)c1ccc(C(=O)Nc2cc(-c3ccnc(N[C@@H]4CCNC4)n3)c[nH]c2=O)cc1` ? > 6.00

Quick one: pKi for `CC(C)(C)c1ccc(C(=O)Nc2cc(-c3ccncc3)c[nH]c2=O)cc1` ? < 6.00

Quick one: pKi for CC(C)(C)c1ccc(C(=O)Nc2cc(-c3ccnc(NC4CCNC4)n3)c[nH]c2=O)cc1 (stereo not drawn) ? > 6.00

Quick one: pKi for CC(O)[C@@H](CO)Nc1cccc(-c2c[nH]c(=O)c(NC(=O)c3ccc(N4CCCCC4)cc3)c2)n1 (stereo partly drawn) ? < 6.00

Quick one: pKi for `CNc1cccc(-c2c[nH]c(=O)c(NC(=O)c3ccc(C(C)(C)C)cc3)c2)n1` ? < 6.00

Quick one: pKi for `O=C1C=C(c2c[nH]c(=O)c(NC(=O)c3ccc(N4CCCCC4)cc3)c2)CC1` ? < 6.00

Quick one: pKi for `CNc1cc(-c2c[nH]c(=O)c(NC(=O)c3ccc(N4CCCCC4)cc3)c2)ccn1` ? < 6.00

Quick one: pKi for `CNCCN(C)c1nccc(-c2c[nH]c(=O)c(NC(=O)c3ccc(N4CCCCC4)cc3)c2)n1` ? < 6.00

Quick one: pKi for `CNc1cncc(-c2c[nH]c(=O)c(NC(=O)c3ccc(NCCCn4ccnc4)cc3)c2)n1` ? < 6.00
